# MEASURED ON: rFVIII (Homo sapiens, UniProt P00451)
# Sequence (P00451 20-2351): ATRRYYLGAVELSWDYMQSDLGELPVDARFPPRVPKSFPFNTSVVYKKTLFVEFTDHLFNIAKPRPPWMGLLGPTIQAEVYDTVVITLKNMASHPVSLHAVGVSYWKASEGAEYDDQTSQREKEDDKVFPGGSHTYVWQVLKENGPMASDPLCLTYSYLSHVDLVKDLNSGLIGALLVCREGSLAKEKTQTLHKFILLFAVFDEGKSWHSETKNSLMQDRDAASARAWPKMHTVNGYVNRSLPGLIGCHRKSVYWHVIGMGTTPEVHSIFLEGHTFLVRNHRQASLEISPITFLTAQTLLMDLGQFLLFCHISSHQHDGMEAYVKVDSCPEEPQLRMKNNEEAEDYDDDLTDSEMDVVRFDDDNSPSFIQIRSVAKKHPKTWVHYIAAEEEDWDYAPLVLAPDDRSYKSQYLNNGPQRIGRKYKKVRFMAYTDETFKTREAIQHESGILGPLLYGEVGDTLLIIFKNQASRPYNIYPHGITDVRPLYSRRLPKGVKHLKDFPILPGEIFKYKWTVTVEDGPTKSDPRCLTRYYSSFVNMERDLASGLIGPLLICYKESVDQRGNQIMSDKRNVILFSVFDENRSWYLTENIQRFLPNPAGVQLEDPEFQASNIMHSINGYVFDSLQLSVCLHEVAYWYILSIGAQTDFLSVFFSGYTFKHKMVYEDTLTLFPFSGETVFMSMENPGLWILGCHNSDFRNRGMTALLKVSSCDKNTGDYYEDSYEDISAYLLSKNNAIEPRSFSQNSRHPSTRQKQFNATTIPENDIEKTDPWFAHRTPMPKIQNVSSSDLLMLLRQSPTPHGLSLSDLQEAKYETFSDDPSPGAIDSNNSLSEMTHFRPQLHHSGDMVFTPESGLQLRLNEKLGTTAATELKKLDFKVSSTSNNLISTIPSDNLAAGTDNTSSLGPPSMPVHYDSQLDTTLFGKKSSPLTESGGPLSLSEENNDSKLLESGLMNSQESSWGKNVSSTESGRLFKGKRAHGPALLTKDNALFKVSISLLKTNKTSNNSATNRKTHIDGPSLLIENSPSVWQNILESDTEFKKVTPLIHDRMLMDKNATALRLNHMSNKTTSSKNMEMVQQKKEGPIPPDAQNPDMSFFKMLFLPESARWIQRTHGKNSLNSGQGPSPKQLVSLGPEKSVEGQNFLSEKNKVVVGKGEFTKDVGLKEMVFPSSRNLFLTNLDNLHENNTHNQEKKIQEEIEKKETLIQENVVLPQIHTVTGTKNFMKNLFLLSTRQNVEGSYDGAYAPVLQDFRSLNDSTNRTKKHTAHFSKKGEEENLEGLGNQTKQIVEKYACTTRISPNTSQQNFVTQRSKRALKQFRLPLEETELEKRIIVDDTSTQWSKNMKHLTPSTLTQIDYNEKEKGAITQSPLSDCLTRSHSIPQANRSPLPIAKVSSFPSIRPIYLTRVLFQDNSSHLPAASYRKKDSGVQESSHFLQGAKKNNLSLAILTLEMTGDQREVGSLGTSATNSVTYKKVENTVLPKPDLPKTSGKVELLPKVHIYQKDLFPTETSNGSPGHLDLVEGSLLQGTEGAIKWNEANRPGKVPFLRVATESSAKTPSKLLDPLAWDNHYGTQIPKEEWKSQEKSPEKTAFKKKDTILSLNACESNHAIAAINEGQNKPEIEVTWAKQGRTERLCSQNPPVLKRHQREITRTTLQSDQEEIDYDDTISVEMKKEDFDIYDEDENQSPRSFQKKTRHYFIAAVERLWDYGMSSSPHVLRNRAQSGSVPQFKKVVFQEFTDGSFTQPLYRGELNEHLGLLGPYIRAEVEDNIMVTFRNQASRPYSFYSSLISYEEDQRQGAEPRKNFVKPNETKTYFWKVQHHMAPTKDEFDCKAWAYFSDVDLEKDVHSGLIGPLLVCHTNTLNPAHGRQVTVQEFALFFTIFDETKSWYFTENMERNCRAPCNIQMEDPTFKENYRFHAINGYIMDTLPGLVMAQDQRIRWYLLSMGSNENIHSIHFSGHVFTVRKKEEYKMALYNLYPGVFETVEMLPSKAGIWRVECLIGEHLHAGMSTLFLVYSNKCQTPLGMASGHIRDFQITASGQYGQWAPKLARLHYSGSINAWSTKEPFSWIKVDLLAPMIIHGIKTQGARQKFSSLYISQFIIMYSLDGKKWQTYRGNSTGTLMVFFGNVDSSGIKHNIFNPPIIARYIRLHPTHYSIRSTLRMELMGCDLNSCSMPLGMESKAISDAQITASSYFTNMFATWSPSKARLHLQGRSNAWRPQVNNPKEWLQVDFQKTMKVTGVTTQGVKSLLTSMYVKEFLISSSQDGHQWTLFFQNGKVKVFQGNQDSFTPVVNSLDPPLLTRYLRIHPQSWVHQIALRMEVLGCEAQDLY
# Sequence (P00451 1668-2351 limits assumed): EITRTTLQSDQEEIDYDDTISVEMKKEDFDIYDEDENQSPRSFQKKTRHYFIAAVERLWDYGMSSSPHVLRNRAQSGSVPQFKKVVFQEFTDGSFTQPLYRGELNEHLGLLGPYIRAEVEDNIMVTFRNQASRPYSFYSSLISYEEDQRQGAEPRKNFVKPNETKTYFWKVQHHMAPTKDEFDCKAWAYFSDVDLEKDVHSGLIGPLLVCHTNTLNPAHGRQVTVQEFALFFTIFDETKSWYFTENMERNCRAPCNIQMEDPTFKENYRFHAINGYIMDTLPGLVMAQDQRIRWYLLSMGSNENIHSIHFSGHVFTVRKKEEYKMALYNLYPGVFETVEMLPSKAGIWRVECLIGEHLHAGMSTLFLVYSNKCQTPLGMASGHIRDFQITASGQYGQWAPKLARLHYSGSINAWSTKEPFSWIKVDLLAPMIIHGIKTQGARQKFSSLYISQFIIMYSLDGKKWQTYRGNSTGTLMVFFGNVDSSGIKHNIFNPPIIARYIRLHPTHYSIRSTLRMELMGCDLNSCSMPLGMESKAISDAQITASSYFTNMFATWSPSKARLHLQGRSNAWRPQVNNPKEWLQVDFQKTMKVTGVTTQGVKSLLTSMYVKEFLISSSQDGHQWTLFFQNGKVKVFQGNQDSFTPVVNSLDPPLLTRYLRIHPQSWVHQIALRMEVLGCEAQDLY
# ASSAY METHOD TEXT: confirmatory binding assay in filtration plate format using 14C-rFVIII
# STATED CONDITIONS: Table 4; 14C-rFVIII 30 nM in PPF, 5 mg beads
Each record here notes measured 2% acetic acid % total.
Field: value (include unit after the number)

Sample records with 2% acetic acid % total:
[
  {
    "SUBSTANCE": "9 (FALPGR) [compound 9]",
    "2% acetic acid % total": "5%"
  },
  {
    "SUBSTANCE": "14 (EPRVIG) [compound 14]",
    "2% acetic acid % total": "6%"
  },
  {
    "SUBSTANCE": "22 (FVFLVR) [compound 22]",
    "2% acetic acid % total": "19%"
  },
  {
    "SUBSTANCE": "20 (WHHHRG) [compound 20]",
    "2% acetic acid % total": "54%"
  },
  {
    "SUBSTANCE": "15 (VYGVGG) [compound 15]",
    "2% acetic acid % total": "5%"
  },
  {
    "SUBSTANCE": "21 (HFQIFG) [compound 21]",
    "2% acetic acid % total": "63%"
  },
  {
    "SUBSTANCE": "13 (KAQETW) [compound 13]",
    "2% acetic acid % total": "3%"
  },
  {
    "SUBSTANCE": "10 (AFVRSL) [compound 10]",
    "2% acetic acid % total": "5%"
  }
]

Request: What value of measured 2% acetic acid % total is listed for 11 (NAIFQW) [compound 11] ?
Response: 23%

Request: Please report the recorded 2% acetic acid % total for 12 (QRLIQF) [compound 12] .
Response: 8%

Request: Field request: 2% acetic acid % total | item: 19 (FHFGLQ) [compound 19]
Response: 72%

###

# MEASURED ON: rFVIII (Homo sapiens, UniProt P00451)
# ASSAY METHOD TEXT: rFVIII activity recovery from peptide columns by chromogenic substrate assay (COATEST)
# Type: biochemical
# STATED CONDITIONS: Table 7; activity recovery
REPORTED METRIC: 0.5M CaCl2 % total
Answer with the number, then the unit.

Field: example entries. Status: answers known.
[
  {
    "SUBSTANCE": "2 (RNPPNN) [compound 2]",
    "MEASURED VALUE": "95%"
  },
  {
    "SUBSTANCE": "6 (HYWFYK) [compound 6]",
    "MEASURED VALUE": "86%"
  },
  {
    "SUBSTANCE": "1 (KPNPLA) [compound 1]",
    "MEASURED VALUE": "90%"
  },
  {
    "SUBSTANCE": "7 (IRFYSE) [compound 7]",
    "MEASURED VALUE": "96%"
  }
]

Switching to the query record.
Request: Param item = 5 (LNWKYG) [compound 5] ; retrieve measured 0.5M CaCl2 % total.
Response: 96%

###

# MEASURED ON: rFVIII (Homo sapiens, UniProt P00451)
# ASSAY METHOD TEXT: rFVIII activity recovery from peptide columns by chromogenic substrate assay (COATEST)
# Type: biochemical
# STATED CONDITIONS: Table 9; 0.5M CaCl2 fraction
Listed here are substances together with their documented Activity results % total.

For orientation, consider the following solved cases.
[
  {
    "SUBSTANCE": "2 (RNPPNN) [compound 2]",
    "Activity results % total": "95%"
  },
  {
    "SUBSTANCE": "10 (AFVRSL) [compound 10]",
    "Activity results % total": "98%"
  }
]

Request: Tell me the measured Activity results % total of 11 (NAIFQW) [compound 11] , please.
Response: 90%

Request: What value of measured Activity results % total is listed for 15 (VYGVGG) [compound 15] ?
Response: 60%

Request: // lookup Activity results % total for 14 (EPRVIG) [compound 14]
Response: 25%

Request: Name the recorded Activity results % total for 12 (QRLIQF) [compound 12] .
Response: 97%

Request: # input substance: 13 (KAQETW) [compound 13] ; wanted: its Activity results % total
Response: 96%

Request: Given 1 (KPNPLA) [compound 1] , state its recorded Activity results % total.
Response: 90%

Request: May I ask what Activity results % total has been recorded for 7 (IRFYSE) [compound 7] ?
Response: 96%

###

Reported 0.5M CaCl2 ng values are given for each entry in this list.
# MEASURED ON: rFVIII (Homo sapiens)
# ASSAY METHOD TEXT: column format binding assay, rFVIII mass per fraction by sandwich capture ELISA for the light chain
# STATED CONDITIONS: Table 5
Please report the result as a number followed by the unit.

Would you please look over these solved cases?
[
  {
    "SUBSTANCE": "18 (WLWSHN) [compound 18]",
    "0.5M CaCl2 ng": "2362 ng"
  },
  {
    "SUBSTANCE": "16 (WRRHRY) [compound 16]",
    "0.5M CaCl2 ng": "338 ng"
  },
  {
    "SUBSTANCE": "7 (IRFYSE) [compound 7]",
    "0.5M CaCl2 ng": "5836 ng"
  },
  {
    "SUBSTANCE": "4 (FRPHWA) [compound 4]",
    "0.5M CaCl2 ng": "5510 ng"
  },
  {
    "SUBSTANCE": "17 (FYRFWN) [compound 17]",
    "0.5M CaCl2 ng": "1622 ng"
  }
]

Request: Given 6 (HYWFYK) [compound 6] , state its recorded 0.5M CaCl2 ng.
Response: 5658 ng

Request: // 0.5M CaCl2 ng lookup, key: 1 (KPNPLA) [compound 1]
Response: 4961 ng

Request: Looking for the measured 0.5M CaCl2 ng of 2 (RNPPNN) [compound 2] , can you help?
Response: 5745 ng

Request: For the substance 5 (LNWKYG) [compound 5] , what 0.5M CaCl2 ng is on record?
Response: 5530 ng

###

# MEASURED ON: rFVIII (Homo sapiens, UniProt P00451)
# ASSAY METHOD TEXT: confirmatory binding assay in filtration plate format using 14C-rFVIII
# STATED CONDITIONS: Table 3; remaining on beads after washes; 14C-rFVIII 20 nM
Please assign NO whenever beads dpm is at or above 200 dpm, and YES whenever it is below.

Previously resolved entries follow.
[
  {
    "SUBSTANCE": "6 (HYWFYK) [compound 6]",
    "LABEL VALUE": "YES"
  },
  {
    "SUBSTANCE": "16 (WRRHRY) [compound 16]",
    "LABEL VALUE": "NO"
  },
  {
    "SUBSTANCE": "17 (FYRFWN) [compound 17]",
    "LABEL VALUE": "NO"
  },
  {
    "SUBSTANCE": "4 (FRPHWA) [compound 4]",
    "LABEL VALUE": "NO"
  },
  {
    "SUBSTANCE": "5 (LNWKYG) [compound 5]",
    "LABEL VALUE": "YES"
  }
]

Request: Hi there! Is beads dpm for 1 (KPNPLA) [compound 1] below 200 dpm, do you know?
Response: YES

Request: Please determine if 7 (IRFYSE) [compound 7] is below 200 dpm in terms of beads dpm.
Response: YES

Request: Quick check: does 2 (RNPPNN) [compound 2] have beads dpm under 200 dpm?
Response: YES

Request: Criterion: beads dpm strictly below 200 dpm. Is it met by 3 (YVQGLW) [compound 3] ?
Response: YES

###

# MEASURED ON: rFVIII (Homo sapiens, UniProt P00451)
# ASSAY METHOD TEXT: column format binding assay, rFVIII mass per fraction by sandwich capture ELISA for the light chain
# STATED CONDITIONS: Table 9; 0.5M CaCl2 fraction
REPORTED METRIC: ELISA results % total (%)
All answers are understood in %, so give the number only.

[
  {
    "SUBSTANCE": "10 (AFVRSL) [compound 10]",
    "VALUE UNITS": "%",
    "ELISA results % total": 98
  },
  {
    "SUBSTANCE": "9 (FALPGR) [compound 9]",
    "VALUE UNITS": "%",
    "ELISA results % total": 97
  },
  {
    "SUBSTANCE": "12 (QRLIQF) [compound 12]",
    "VALUE UNITS": "%",
    "ELISA results % total": 96
  },
  {
    "SUBSTANCE": "1 (KPNPLA) [compound 1]",
    "VALUE UNITS": "%",
    "ELISA results % total": 88
  },
  {
    "SUBSTANCE": "6 (HYWFYK) [compound 6]",
    "VALUE UNITS": "%",
    "ELISA results % total": 90
  },
  {
    "SUBSTANCE": "11 (NAIFQW) [compound 11]",
    "VALUE UNITS": "%",
    "ELISA results % total": 78
  },
  {
    "SUBSTANCE": "7 (IRFYSE) [compound 7]",
    "VALUE UNITS": "%",
    "ELISA results % total": 94
  }
]

Now for a further substance.
Request: Which ELISA results % total reading was recorded for the substance 4 (FRPHWA) [compound 4] ?
Response: 90
